Data credit: patent US5162328A

# test-name: Pharmacokinetics in dogs (plasma concentration by HPLC)
# Type: in vivo, dog (beagle)
# experimental-parameters: dog, plasma, po, 2 mg/kg/day, Dog 2, day 3, 4 h; 2 mg/kg/day PO
measurement-type: concentration at 4 h (ng/mL)
Your answer is read as ng/mL, so omit the unit and give the number.

For the compound `c1cc(Nc2nccc(-c3cccs3)n2)cc(OCCn2ccnc2)c1` , what concentration at 4 h is on record?
36

====

# test-name: Pharmacokinetics in dogs (plasma concentration by HPLC)
# Format: in vivo, dog (beagle)
# experimental-parameters: dog, plasma, po, 2 mg/kg/day, Dog 1, day 5; 2 mg/kg/day PO
measurement-type: Cmax (ng/mL)

I. c1cc(Nc2nccc(-c3cccs3)n2)cc(OCCn2ccnc2)c1
II. Cc1cc(Nc2nccc(-c3ccncc3)n2)ccc1N.Cl.Cl [Compound 2, reference compound]
Could you kindly indicate whether I or II has the higher Cmax value? Your answer should be the label of the entry you select.
I

====

# test-name: Pharmacokinetics in dogs (plasma concentration by HPLC)
# Type: in vivo, dog (beagle)
# experimental-parameters: dog, plasma, po, 2 mg/kg/day, Dog 3, day 3, 0.5 h; 2 mg/kg/day PO
measurement-type: concentration at 0.5 h (ng/mL)

[[record]]
molecule = "Cc1cc(Nc2nccc(-c3ccncc3)n2)ccc1N.Cl.Cl [Compound 2, reference compound]"
measurement_type = "concentration at 0.5 h"
unit_string = "ng/mL"
endpoint_value = 387

[[record]]
molecule = "c1cc(Nc2nccc(-c3cccs3)n2)cc(OCCn2ccnc2)c1"
measurement_type = "concentration at 0.5 h"
unit_string = "ng/mL"
endpoint_value = 292


====

# test-name: Pharmacokinetics in dogs (plasma concentration by HPLC)
# Assay type: in vivo, dog (beagle)
# experimental-parameters: dog, plasma, po, 2 mg/kg/day, Dog 2, day 5; 2 mg/kg/day PO; read-out: AUCO- (to infinite time)
measurement-type: AUC(0-inf) (ng·h/mL)

P. Cc1cc(Nc2nccc(-c3ccncc3)n2)ccc1N.Cl.Cl [Compound 2, reference compound]
Q. c1cc(Nc2nccc(-c3cccs3)n2)cc(OCCn2ccnc2)c1
// which entry has the larger AUC(0-inf) value, P or Q ? # respond with the chosen item's label
Q

====

# test-name: Pharmacokinetics in dogs (plasma concentration by HPLC)
# Type: in vivo, dog (beagle)
# experimental-parameters: dog, plasma, po, 2 mg/kg/day, Dog 3, day 3; 2 mg/kg/day PO; read-out: AUCO- (to infinite time)
measurement-type: AUC(0-inf) (ng·h/mL)

P. c1cc(Nc2nccc(-c3cccs3)n2)cc(OCCn2ccnc2)c1
Q. Cc1cc(Nc2nccc(-c3ccncc3)n2)ccc1N.Cl.Cl [Compound 2, reference compound]
Parameter check: reported AUC(0-inf) is higher for which label, P or Q ? Identify your selection by its label.
P
(P: 955 ng·h/mL, Q: 635 ng·h/mL)

====

# test-name: Pharmacokinetics in dogs (plasma concentration by HPLC)
# Type: in vivo, dog (beagle)
# experimental-parameters: dog, plasma, po, 2 mg/kg/day, Dog 3, day 3; 2 mg/kg/day PO
measurement-type: Cmax (ng/mL)

[[record]]
compound = "c1cc(Nc2nccc(-c3cccs3)n2)cc(OCCn2ccnc2)c1"
endpoint_value = 350

[[record]]
compound = "Cc1cc(Nc2nccc(-c3ccncc3)n2)ccc1N.Cl.Cl [Compound 2, reference compound]"
endpoint_value = 387


====

# test-name: Pharmacokinetics in dogs (plasma concentration by HPLC)
# Assay type: in vivo, dog (beagle)
# experimental-parameters: dog, plasma, po, 2 mg/kg/day, Dog 2, day 5, 0.5 h; 2 mg/kg/day PO
measurement-type: concentration at 0.5 h (ng/mL)

P. Cc1cc(Nc2nccc(-c3ccncc3)n2)ccc1N.Cl.Cl [Compound 2, reference compound]
Q. c1cc(Nc2nccc(-c3cccs3)n2)cc(OCCn2ccnc2)c1
// which entry has the larger concentration at 0.5 h value, P or Q ? Your answer should be the label of the entry you select.
P

====

# test-name: Pharmacokinetics in dogs (plasma concentration by HPLC)
# Format: in vivo, dog (beagle)
# experimental-parameters: dog, plasma, po, 2 mg/kg/day, one dog (Dog 1), day 1, 0.5 h; 2 mg/kg/day PO; heading: Plasma concentration
measurement-type: concentration at 0.5 h (ng/mL)
Field: numeric (ng/mL). Do not append units.

concentration at 0.5 h for CCN(CC)CCOc1ccc(Nc2nccc(-c3ccncc3)n2)cc1.Cl.Cl [Compound 3, reference compound] ?
30

====

# test-name: Pharmacokinetics in dogs (plasma concentration by HPLC)
# Assay type: in vivo, dog (beagle)
# experimental-parameters: dog, plasma, po, 2 mg/kg/day, one dog (Dog 1), day 1, 4.0 h; 2 mg/kg/day PO; heading: Plasma concentration
measurement-type: concentration at 4 h (ng/mL)
Please respond with the number in ng/mL and leave the unit unwritten.

Quick one: concentration at 4 h of CCN(CC)CCOc1ccc(Nc2nccc(-c3ccncc3)n2)cc1.Cl.Cl [Compound 3, reference compound] ?
40

====

# test-name: Pharmacokinetics in dogs (plasma concentration by HPLC)
# Format: in vivo, dog (beagle)
# experimental-parameters: dog, plasma, po, 2 mg/kg/day, Dog 1, day 1, 0.5 h; 2 mg/kg/day PO
measurement-type: concentration at 0.5 h (ng/mL)

[[record]]
compound = "c1cc(Nc2nccc(-c3cccs3)n2)cc(OCCn2ccnc2)c1"
unit_string = "ng/mL"
endpoint_value = 483

[[record]]
compound = "Cc1cc(Nc2nccc(-c3ccncc3)n2)ccc1N.Cl.Cl [Compound 2, reference compound]"
unit_string = "ng/mL"
endpoint_value = 512


====

# test-name: Pharmacokinetics in dogs (plasma concentration by HPLC)
# Format: in vivo, dog (beagle)
# experimental-parameters: dog, plasma, po, 2 mg/kg/day, Dog 1, day 1; 2 mg/kg/day PO
measurement-type: AUC(0-t) (ng·h/mL)

P. Cc1cc(Nc2nccc(-c3ccncc3)n2)ccc1N.Cl.Cl [Compound 2, reference compound]
Q. c1cc(Nc2nccc(-c3cccs3)n2)cc(OCCn2ccnc2)c1
Please indicate which has the smaller reported AUC(0-t): P , or Q . Please reply using the label of the selected record.
P

====

# test-name: Pharmacokinetics in dogs (plasma concentration by HPLC)
# Format: in vivo, dog (beagle)
# experimental-parameters: dog, plasma, po, 2 mg/kg/day, Dog 1, day 5, 4 h; 2 mg/kg/day PO
measurement-type: concentration at 4 h (ng/mL)
Reply with just the number (in ng/mL).

Would you kindly share the measured concentration at 4 h for `c1cc(Nc2nccc(-c3cccs3)n2)cc(OCCn2ccnc2)c1` ?
112

====

# test-name: Pharmacokinetics in dogs (plasma concentration by HPLC)
# Type: in vivo, dog (beagle)
# experimental-parameters: dog, plasma, po, 2 mg/kg/day, Dog 2, day 1; 2 mg/kg/day PO; read-out: AUCO- (to infinite time)
measurement-type: AUC(0-inf) (ng·h/mL)

1. Cc1cc(Nc2nccc(-c3ccncc3)n2)ccc1N.Cl.Cl [Compound 2, reference compound]
2. c1cc(Nc2nccc(-c3cccs3)n2)cc(OCCn2ccnc2)c1
Given the listed items, does 1 or 2 have the lesser reported AUC(0-inf)? Return value: the label identifying the chosen record.
1

====

# test-name: Pharmacokinetics in dogs (plasma concentration by HPLC)
# Assay type: in vivo, dog (beagle)
# experimental-parameters: dog, plasma, po, 2 mg/kg/day, Mean, day 3; 2 mg/kg/day PO; read-out: AUCO- (to infinite time)
measurement-type: AUC(0-inf) (ng·h/mL)

[[record]]
compound = "c1cc(Nc2nccc(-c3cccs3)n2)cc(OCCn2ccnc2)c1"
endpoint_value = 595

[[record]]
compound = "Cc1cc(Nc2nccc(-c3ccncc3)n2)ccc1N.Cl.Cl [Compound 2, reference compound]"
endpoint_value = 460


====

# test-name: Pharmacokinetics in dogs (plasma concentration by HPLC)
# Format: in vivo, dog (beagle)
# experimental-parameters: dog, plasma, po, 2 mg/kg/day, Dog 2, day 3; 2 mg/kg/day PO
measurement-type: AUC(0-t) (ng·h/mL)

[[record]]
compound = "Cc1cc(Nc2nccc(-c3ccncc3)n2)ccc1N.Cl.Cl [Compound 2, reference compound]"
measurement_type = "AUC(0-t)"
endpoint_value = 293

[[record]]
compound = "c1cc(Nc2nccc(-c3cccs3)n2)cc(OCCn2ccnc2)c1"
measurement_type = "AUC(0-t)"
endpoint_value = 383


====

# test-name: Pharmacokinetics in dogs (plasma concentration by HPLC)
# Assay type: in vivo, dog (beagle)
# experimental-parameters: dog, plasma, po, 2 mg/kg/day, Dog 2, day 1; 2 mg/kg/day PO
measurement-type: AUC(0-t) (ng·h/mL)

P. Cc1cc(Nc2nccc(-c3ccncc3)n2)ccc1N.Cl.Cl [Compound 2, reference compound]
Q. c1cc(Nc2nccc(-c3cccs3)n2)cc(OCCn2ccnc2)c1
Please indicate which has the smaller reported AUC(0-t): P , or Q . Write down the label attached to your selection.
P

====

# test-name: Pharmacokinetics in dogs (plasma concentration by HPLC)
# Format: in vivo, dog (beagle)
# experimental-parameters: dog, plasma, po, 2 mg/kg/day, Dog 2, day 5, 4 h; 2 mg/kg/day PO
# Experimental: Since dogs are used in toxicology studies of antiasthma compounds, this species is chosen for pharmacokinetic evaluations. […] Heparinized blood samples are obtained from each animal on the first, third and fifth day of dosage at 0.5, 1.0, 2.0, 4.0, 7.0, 12.0 and 24.0 hours after the dose. The samples are centrifuged immediately to obtain plasma which is frozen until analyzed. […]
measurement-type: concentration at 4 h (ng/mL)
Hi! Could you send only the number? It should be in ng/mL, unit omitted.

What does the data say about its concentration at 4 h? Entry: `c1cc(Nc2nccc(-c3cccs3)n2)cc(OCCn2ccnc2)c1`
30
